target: DRD2S (Homo sapiens); experiment: cell-based
Sequence (P14416 1-414 isoform P14416-2): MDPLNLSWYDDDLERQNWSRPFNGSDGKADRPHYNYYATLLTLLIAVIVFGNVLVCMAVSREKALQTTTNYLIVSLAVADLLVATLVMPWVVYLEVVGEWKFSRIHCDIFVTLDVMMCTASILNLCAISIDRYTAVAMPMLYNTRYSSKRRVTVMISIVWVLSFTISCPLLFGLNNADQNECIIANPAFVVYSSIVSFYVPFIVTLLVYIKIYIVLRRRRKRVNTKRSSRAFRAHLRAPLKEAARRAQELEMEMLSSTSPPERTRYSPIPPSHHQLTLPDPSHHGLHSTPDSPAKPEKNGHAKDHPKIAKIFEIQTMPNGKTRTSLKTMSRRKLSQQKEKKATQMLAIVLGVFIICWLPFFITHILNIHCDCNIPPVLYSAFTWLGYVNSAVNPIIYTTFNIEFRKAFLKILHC
measured-property: pEC50
Answers are plain numbers, as −log10 of the molar value.

pEC50 recorded for this compound, CN(C)CCc1c[nH]c2cccc(OP(=O)(Oc3ccccc3)Oc3ccccc3)c12 , is 5.51

====

Please go through the items and note down their IC50.
molecular target: HTR1B (5-HTR1B) (Homo sapiens, UniProt P28222); test: cell-based
Sequence (P28222 whole entry): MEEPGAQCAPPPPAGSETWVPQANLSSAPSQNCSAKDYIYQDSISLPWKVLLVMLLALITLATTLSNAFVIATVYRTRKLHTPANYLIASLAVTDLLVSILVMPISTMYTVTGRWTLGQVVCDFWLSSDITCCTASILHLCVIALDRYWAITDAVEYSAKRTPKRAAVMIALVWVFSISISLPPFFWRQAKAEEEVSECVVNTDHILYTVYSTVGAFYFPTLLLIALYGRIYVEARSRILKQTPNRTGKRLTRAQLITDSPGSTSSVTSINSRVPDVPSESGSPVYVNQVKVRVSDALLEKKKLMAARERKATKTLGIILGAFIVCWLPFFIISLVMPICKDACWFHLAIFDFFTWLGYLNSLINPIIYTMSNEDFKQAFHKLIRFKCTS

CN(C)CCc1c[nH]c2cccc(OP(=O)(Oc3ccccc3)Oc3ccccc3)c12 | > 100 µM

We next turn to a different compound, shown below.
IC50 recorded for this compound, CN(C)CCc1c[nH]c2cccc(OC(=O)OCc3ccccc3)c12 , is > 100 µM
